Molecular target: Focal adhesion kinase 1 (Homo sapiens) (UniProt Q05397)
Sequence (Q05397 whole entry, looked up): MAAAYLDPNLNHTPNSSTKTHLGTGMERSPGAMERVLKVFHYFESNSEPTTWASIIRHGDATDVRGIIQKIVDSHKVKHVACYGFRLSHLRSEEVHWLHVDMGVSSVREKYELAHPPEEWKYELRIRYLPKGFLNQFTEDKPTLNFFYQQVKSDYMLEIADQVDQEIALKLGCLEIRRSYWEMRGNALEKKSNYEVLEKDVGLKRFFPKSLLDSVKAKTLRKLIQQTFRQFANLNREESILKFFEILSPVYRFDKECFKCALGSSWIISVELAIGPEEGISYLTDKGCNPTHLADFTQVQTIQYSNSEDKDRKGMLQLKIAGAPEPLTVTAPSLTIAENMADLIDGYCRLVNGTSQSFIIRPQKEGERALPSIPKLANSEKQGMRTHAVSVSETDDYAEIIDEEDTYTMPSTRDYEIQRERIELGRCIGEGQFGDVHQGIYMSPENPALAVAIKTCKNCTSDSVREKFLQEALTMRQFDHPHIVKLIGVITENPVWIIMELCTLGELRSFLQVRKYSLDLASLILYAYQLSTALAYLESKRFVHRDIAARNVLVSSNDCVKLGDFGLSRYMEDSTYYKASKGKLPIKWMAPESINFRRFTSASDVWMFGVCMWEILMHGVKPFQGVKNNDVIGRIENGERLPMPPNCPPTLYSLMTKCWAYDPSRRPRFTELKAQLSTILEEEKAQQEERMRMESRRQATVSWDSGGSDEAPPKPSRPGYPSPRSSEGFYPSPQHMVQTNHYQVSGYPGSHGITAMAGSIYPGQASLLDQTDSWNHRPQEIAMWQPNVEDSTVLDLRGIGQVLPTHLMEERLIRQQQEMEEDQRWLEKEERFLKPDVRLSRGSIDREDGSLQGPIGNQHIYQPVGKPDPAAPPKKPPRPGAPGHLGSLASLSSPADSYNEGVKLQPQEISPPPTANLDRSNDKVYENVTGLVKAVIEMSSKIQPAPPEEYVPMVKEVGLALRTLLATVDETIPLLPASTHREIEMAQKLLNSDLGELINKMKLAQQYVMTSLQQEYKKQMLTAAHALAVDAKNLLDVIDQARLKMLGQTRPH
Assay: small-molecule microarray binders of FAK, primary screen, biochemical, 635/667 nm fluorescence, BSA, DTT (AID 1130);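 also: composite of spot emission at 667 nm and signal to noise over triplicate slides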
Conditions: PTK2 binding, 635 nm fluorescence, higher = more signal

Smiles Notation | composite z-score
CC(C)(C)N1C(=O)[C@H]2[C@H]3[C@H](O)[C@H](O)CC(=NOCc4ccccc4)[C@@H]3CC[C@H]2C1=O | -0.0913
COC(=O)[C@@H]1N=C(c2ccc(OCCCO)cc2)O[C@@H]1c1ccccc1N=[N+]=[N-] | 0.942
C=CC[C@@H]1C=C[C@H](ON=C(C)CCN2CCc3nc(CC)c(CC)cc3C2)[C@@H](CO)O1 | -0.191
COc1ccc(O[C@@H]2[C@H](O)CO[C@H]2C=CC#Cc2ccccc2)cc1 | -0.267
[N-]=[N+]=NCc1ccccc1[C@@H]1OC(c2ccc(OCCCO)cc2)=N[C@]1(Cc1ccccc1)C(=O)N1CCOCC1 | 0.373
CO[C@@H]1COC(=O)CC=C[C@@H](C)[C@H](OC)COC(=O)[C@H](COCc2ccccc2)NC(=O)CC=C[C@H]1C | -0.843
O=C1C[C@@H](O)[C@@H](O)[C@@H]2[C@@H]3C(=O)N(c4ccc(F)cc4F)C(=O)[C@@H]3CC[C@@H]12 | -0.246
O=C1[C@H]2[C@H]3[C@H](O)[C@H](O)CC(=NOCc4ccccc4)[C@H]3CC[C@H]2C(=O)N1C[C@@H]1CCCO1 | -0.0074

###

Target: Luciferin 4-monooxygenase (Photinus pyralis) (UniProt P08659)
Sequence (P08659 whole entry, looked up): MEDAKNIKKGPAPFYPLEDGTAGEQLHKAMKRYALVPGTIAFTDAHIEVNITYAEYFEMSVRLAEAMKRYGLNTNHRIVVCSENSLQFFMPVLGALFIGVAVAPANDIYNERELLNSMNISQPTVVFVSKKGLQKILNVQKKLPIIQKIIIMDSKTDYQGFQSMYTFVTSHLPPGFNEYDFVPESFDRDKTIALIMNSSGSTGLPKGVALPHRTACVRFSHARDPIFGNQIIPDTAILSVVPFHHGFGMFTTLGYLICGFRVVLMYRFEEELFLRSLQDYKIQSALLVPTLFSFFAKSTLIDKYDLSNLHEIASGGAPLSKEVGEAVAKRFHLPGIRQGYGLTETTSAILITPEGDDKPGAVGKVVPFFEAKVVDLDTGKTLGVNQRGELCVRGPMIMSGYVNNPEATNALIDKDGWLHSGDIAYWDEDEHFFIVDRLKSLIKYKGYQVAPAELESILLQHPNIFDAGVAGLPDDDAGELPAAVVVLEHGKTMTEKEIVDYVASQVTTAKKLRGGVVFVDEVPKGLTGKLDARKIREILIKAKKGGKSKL
Test: firefly luciferase enzyme inhibitors, primary screen, biochemical, luminescence, purified enzyme, 2006 set (AID 1141);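 also: cell-free assay with purified firefly luciferase at 100 ng per well in PBS; test concentration not given here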
Conditions: SteadyGlo luminescence, 30 min, higher = more signal, called active from +8 up or from −8 down
# label = satisfied if z-score >= -0.4 else not satisfied

Compound | Target Or Test System | Cat
CC(CCN1CCCCc2nc(C)c(C)cc21)=NOC(C)CN1CCCc2nc(C)c(C)cc21 (configuration not stated) | Luciferin 4-monooxygenase (Photinus pyralis) (UniProt P08659) | satisfied
CC(CCN1CCc2nc(-c3ccccc3)c(-c3ccccc3)cc2C1)=NO[C@@H](C)c1cn([C@H](CO)Cc2ccccc2)nn1 | Luciferin 4-monooxygenase (Photinus pyralis) (UniProt P08659) | not satisfied
CC(C)(C)N1CC=CC23O[C@@H]4C=CCCOC(=O)C4[C@H]2C(=O)N(CCCCCO)[C@@H]3C1=O (some centres not stated) | Luciferin 4-monooxygenase (Photinus pyralis) (UniProt P08659) | not satisfied
CO[C@@H]1COC(=O)CC=C[C@@H](C)[C@@H]2C=C[C@H](O)[C@@H](COC(=O)CCC[C@H]1C)O2 | Luciferin 4-monooxygenase (Photinus pyralis) (UniProt P08659) | satisfied
O[C@@H](Cc1ccccc1)[C@H]1C2C=CCCC(c3ccccc3)=C2CN1Cc1cccc(Cl)c1 (some centres not stated) | Luciferin 4-monooxygenase (Photinus pyralis) (UniProt P08659) | not satisfied
CC(=O)OC[C@H]1O[C@@H](ON=C(C)CCN2CCc3nc(-c4ccccc4)c(-c4ccccc4)cc3C2)[C@H](OC(C)=O)[C@@H](OC(C)=O)[C@@H]1OC(C)=O | Luciferin 4-monooxygenase (Photinus pyralis) (UniProt P08659) | satisfied
O=C1C[C@@H](O)[C@@H](O)[C@@H]2[C@@H]3C(=O)N(c4cccc(Oc5ccccc5)c4)C(=O)[C@@H]3CC[C@@H]12 | Luciferin 4-monooxygenase (Photinus pyralis) (UniProt P08659) | not satisfied

###

System: Wnt5a (protein binding on small-molecule microarray)
Assay: Wnt5a binders on small-molecule microarray, primary screen, biophysical, 635/667 nm fluorescence (AID 1142);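 also: fluorescence read at 667 nm with signal to noise per printed feature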
Details: 635 nm fluorescence, higher = more signal
# label = Met if composite z-score >= -0.04 else Not met

Compound | Target Or Test System | Cat
CCOC(=O)CCN1C(=O)[C@H]2[C@H]3[C@H](O)[C@H](O)CC(=NOC[C@@H](O)COCc4ccco4)[C@@H]3CC[C@H]2C1=O | Wnt5a (protein binding on small-molecule microarray) | Not met
COc1ccc([Si](C)(C)[C@H]2[C@H](CC(=O)N3CCC[C@H]3CO)O[C@@]3(C(=O)N(Cc4cccc(N5C(=O)COc6ccccc65)c4)c4ccccc43)[C@@H]2C)cc1 | Wnt5a (protein binding on small-molecule microarray) | Met
COc1cccc([C@H]2Oc3ccc(OC)cc3C(=NOC(C)CN3CCCc4nc(C)c(C)cc43)[C@@H]2O)c1 (some centres undefined) | Wnt5a (protein binding on small-molecule microarray) | Met
CC(C)[C@@H](OCc1ccccc1)[C@H](C)C=NO[C@H](C)c1cn([C@H](CO)Cc2ccccc2)nn1 | Wnt5a (protein binding on small-molecule microarray) | Met
CCCC[C@@H]1C[C@H]1[C@@H](NS(=O)(=O)c1cccc2cccnc12)c1ccc(-c2ccccc2)cc1 | Wnt5a (protein binding on small-molecule microarray) | Met
COC(=O)[C@@H]1CCCN1C(=O)[C@@H](C)CO | Wnt5a (protein binding on small-molecule microarray) | Met
NC(=O)NCC#Cc1ccc2c(c1)[C@]1(C(=O)N2)[C@H](c2ccc(O)cc2)N2[C@H](c3ccccc3)[C@H](c3ccccc3)OC(=O)[C@H]2[C@@H]1C(=O)N1CCCCCCC1 | Wnt5a (protein binding on small-molecule microarray) | Met
COCCCNC(=O)[C@@]1(Sc2ccc(C)cc2)CC(=O)N(Cc2ccccc2)[C@@H]1c1ccc(CO)cc1I | Wnt5a (protein binding on small-molecule microarray) | Met
COc1ccc(O[C@H]2C=C[C@@H](c3ccccc3)O[C@@H]2COC(=O)CCC(C)=NO[C@@H](C)c2cc(-c3c(C)cc(C)cc3C)no2)cc1 | Wnt5a (protein binding on small-molecule microarray) | Not met
COc1ccccc1CN1C(=O)c2ccccc2[C@@H](C(=O)NCC(F)(F)F)[C@@H]1c1ccc(CO)cc1 | Wnt5a (protein binding on small-molecule microarray) | Met
CCN1C(=O)[C@H]2[C@H]3[C@H](O)[C@H](O)CC(=NOC[C@@H](C)[C@H](OCc4ccccc4)C(C)C)[C@@H]3CC[C@H]2C1=O | Wnt5a (protein binding on small-molecule microarray) | Met
COc1ccc([Si](C)(C)[C@@H]2[C@@H](CC(=O)N3CCC[C@H]3CO)O[C@]3(C(=O)N(Cc4cccc(N5CCC5=O)c4)c4ccccc43)[C@H]2C)cc1 | Wnt5a (protein binding on small-molecule microarray) | Not met
CCCC[C@H]1OB(O)C[C@H]2C1=C(C)C[C@H]1C(=O)N(C)C(=O)[C@H]12 | Wnt5a (protein binding on small-molecule microarray) | Met
C=CCC(OC(C)=O)[C@@H]1[C@@H](N(Cc2cc3ccccc3o2)C(=O)Cc2ccc(F)cc2)c2cc(OCCCO)ccc2N1C(=O)Cc1ccc(OC)cc1 (some centres undefined) | Wnt5a (protein binding on small-molecule microarray) | Not met
CC(CCN1CCc2nc(-c3ccccc3)c(-c3ccccc3)cc2C1)=NO[C@H](C)c1cn([C@@H]2COC[C@H]2O)nn1 | Wnt5a (protein binding on small-molecule microarray) | Met
O=C1[C@H]2[C@H]3[C@H](O)[C@H](O)CC(=NO[C@@H]4O[C@H](CO)[C@@H](O)[C@H](O)[C@H]4O)[C@@H]3CC[C@H]2C(=O)N1c1ccc(F)cc1F | Wnt5a (protein binding on small-molecule microarray) | Met
COC(=O)[C@]1(CO)N=C(c2ccc(OCCCO)cc2)O[C@@H]1c1ccccc1N=[N+]=[N-] | Wnt5a (protein binding on small-molecule microarray) | Met
O=C1[C@H]2[C@H]3[C@H](O)[C@H](O)CC(=NOCc4ccccc4)[C@H]3CC[C@H]2C(=O)N1c1ccc(F)cc1F | Wnt5a (protein binding on small-molecule microarray) | Not met
C[C@@H]1CC[C@H]2C(=O)O[C@H](COc3ccc(C(C)(C)C)cc3)CN2[C@H]1c1ccc(Br)cc1 | Wnt5a (protein binding on small-molecule microarray) | Not met
O=C1[C@H]2[C@H]3[C@H](O)[C@H](O)CC(=NO[C@@H]4O[C@H](CO)[C@@H](O)[C@H](O)[C@H]4O)[C@H]3CC[C@H]2C(=O)N1Cc1ccc2c(c1)OCO2 | Wnt5a (protein binding on small-molecule microarray) | Not met
CC(C)CON=C1[C@H]2CCn3c(=O)n(-c4ccccc4)c(=O)n3[C@H]2[C@H](O)[C@@H]2O[C@H]12 | Wnt5a (protein binding on small-molecule microarray) | Met
C=C(COC)/C(=C/C[C@H](OC(=O)c1ccncc1)c1ccc(CO)o1)c1cc(C(=O)OC)ccc1OC | Wnt5a (protein binding on small-molecule microarray) | Met
C=C(/C(=C/C[C@@H](OC(=O)c1ccncc1)c1ccc(OCCO)cc1)c1cnc2ccccc2c1)C(C)C | Wnt5a (protein binding on small-molecule microarray) | Met
CO[C@@H]1COC(=O)CC=C[C@@H](C)[C@@H]2C=C[C@H](O)[C@@H](COC(=O)[C@H](C)NC(=O)CC=C[C@H]1C)O2 | Wnt5a (protein binding on small-molecule microarray) | Met
COC(=O)CC=C[C@@H](C)[C@H](OC)c1ccccc1Br | Wnt5a (protein binding on small-molecule microarray) | Not met
Cc1ccc(S[C@]2(C(=O)NCC(F)(F)F)CC(=O)N(Cc3ccccc3Cl)[C@@H]2c2ccc(CO)cc2I)cc1 | Wnt5a (protein binding on small-molecule microarray) | Not met
CCN1C(=O)[C@H]2[C@H]3[C@H](O)[C@H](O)CC(=NOCC=C(C)CCC=C(C)C)[C@H]3CC[C@H]2C1=O | Wnt5a (protein binding on small-molecule microarray) | Met

All values here come from PubChem BioAssay.
